These data points were gathered from paper PMC8523698.

target-or-system: CYP2D6 (Homo sapiens)
Sequence (P10635 whole entry): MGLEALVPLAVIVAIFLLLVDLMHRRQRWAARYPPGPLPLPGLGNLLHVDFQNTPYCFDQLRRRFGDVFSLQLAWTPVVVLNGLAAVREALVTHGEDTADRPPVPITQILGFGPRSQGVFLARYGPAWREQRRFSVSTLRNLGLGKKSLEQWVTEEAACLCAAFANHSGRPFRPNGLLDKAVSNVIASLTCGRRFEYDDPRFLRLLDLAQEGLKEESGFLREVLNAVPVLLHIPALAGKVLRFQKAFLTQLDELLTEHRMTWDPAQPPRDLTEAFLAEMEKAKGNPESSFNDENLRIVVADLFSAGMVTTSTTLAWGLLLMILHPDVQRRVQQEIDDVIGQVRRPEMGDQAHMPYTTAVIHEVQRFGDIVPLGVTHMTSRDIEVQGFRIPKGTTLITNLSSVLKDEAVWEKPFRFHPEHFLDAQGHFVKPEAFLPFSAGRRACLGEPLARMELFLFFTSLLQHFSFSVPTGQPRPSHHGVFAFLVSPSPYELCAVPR
assay-info: Reversible CYP inhibition in human liver microsomes
protocol-conditions: human, microsomes, pH 7.4, Percent of Control Activity, CYP 2D6, 100 µM, 30-Minute Preincubation

>  <molecular-string>
COc1cccc2[nH]c(C(=O)N[C@@H](CC(C)C)C(=O)N[C@@H](C[C@@H]3CCNC3=O)C(=O)COP(=O)(O)O)cc12

>  <activity at 100 µM [%]>
102

$$$$

====

assay-info: Liver S9 binding by equilibrium dialysis
protocol-conditions: human, human liver S9, fu, human liver S9 binding, MEAN, n 4

>  <molecular-string>
COc1cccc2[nH]c(C(=O)N[C@@H](CC(C)C)C(=O)N[C@@H](C[C@@H]3CCNC3=O)C(=O)COP(=O)(O)O)cc12

>  <fraction unbound at 6 h>
0.89

$$$$

====

System: CYP3A4/5
assay-info: Reversible CYP inhibition in human liver microsomes
protocol-conditions: human, human liver microsomes, pH 7.4, probe midazolam (mdz), Percent of Control Activity, CYP 3A4/5 (mdz), 0.158 µM, 30-Minute Preincubation
value-kind: activity at 0.158 µM (%)

>  <molecular-string>
COc1cccc2[nH]c(C(=O)N[C@@H](CC(C)C)C(=O)N[C@@H](C[C@@H]3CCNC3=O)C(=O)COP(=O)(O)O)cc12

>  <target-or-system>
CYP3A4/5

>  <value-kind>
activity at 0.158 µM

>  <numeric-readout>
103

$$$$

====

assay-info: Liver microsome binding by equilibrium dialysis
protocol-conditions: human, human liver microsomes, fu, human liver microsomal binding, Microsomal protein 0.806mg/ml, individual replicates
value-kind: fraction unbound at 6 h

>  <molecular-string>
COc1cccc2[nH]c(C(=O)N[C@@H](CC(C)C)C(=O)N[C@@H](C[C@@H]3CCNC3=O)C(=O)CO)cc12

>  <result>
0.84

$$$$

====

target-or-system: MATE2K (Homo sapiens, UniProt Q86VL8)
Construct: expressed in transfected cells; host or cells: HEK293
Sequence (Q86VL8 1-566 isoform Q86VL8-3): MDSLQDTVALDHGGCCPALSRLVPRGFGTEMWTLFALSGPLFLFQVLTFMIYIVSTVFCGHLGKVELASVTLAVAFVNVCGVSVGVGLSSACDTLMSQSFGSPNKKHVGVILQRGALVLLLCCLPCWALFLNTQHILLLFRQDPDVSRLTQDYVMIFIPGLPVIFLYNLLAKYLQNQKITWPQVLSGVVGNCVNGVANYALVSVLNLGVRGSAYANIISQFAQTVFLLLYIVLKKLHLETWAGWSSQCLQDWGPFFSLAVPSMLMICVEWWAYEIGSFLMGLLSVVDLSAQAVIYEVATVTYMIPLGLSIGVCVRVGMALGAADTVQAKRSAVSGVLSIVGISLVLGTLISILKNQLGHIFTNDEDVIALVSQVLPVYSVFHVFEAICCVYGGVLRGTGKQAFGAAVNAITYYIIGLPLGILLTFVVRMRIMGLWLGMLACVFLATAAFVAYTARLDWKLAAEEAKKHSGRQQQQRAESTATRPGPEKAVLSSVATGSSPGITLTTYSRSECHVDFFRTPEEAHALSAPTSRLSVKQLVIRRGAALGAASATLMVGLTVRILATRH
assay-info: Transporter inhibition using transfected HEK293 cells
Assay type: in vitro ADME
protocol-conditions: human, HEK293 cells stably transfected with MATE2K, pH 7.4, probe [14C]-metformin (20 µM), IC50, [14C]Metformin (20 µM)
pIC50: −log10 of the molar value.
value-kind: pIC50

>  <molecular-string>
COc1cccc2[nH]c(C(=O)N[C@@H](CC(C)C)C(=O)N[C@@H](C[C@@H]3CCNC3=O)C(=O)CO)cc12

>  <result>
< 4.70

$$$$

====

target-or-system: UniProt P33261
Sequence (P33261 whole entry): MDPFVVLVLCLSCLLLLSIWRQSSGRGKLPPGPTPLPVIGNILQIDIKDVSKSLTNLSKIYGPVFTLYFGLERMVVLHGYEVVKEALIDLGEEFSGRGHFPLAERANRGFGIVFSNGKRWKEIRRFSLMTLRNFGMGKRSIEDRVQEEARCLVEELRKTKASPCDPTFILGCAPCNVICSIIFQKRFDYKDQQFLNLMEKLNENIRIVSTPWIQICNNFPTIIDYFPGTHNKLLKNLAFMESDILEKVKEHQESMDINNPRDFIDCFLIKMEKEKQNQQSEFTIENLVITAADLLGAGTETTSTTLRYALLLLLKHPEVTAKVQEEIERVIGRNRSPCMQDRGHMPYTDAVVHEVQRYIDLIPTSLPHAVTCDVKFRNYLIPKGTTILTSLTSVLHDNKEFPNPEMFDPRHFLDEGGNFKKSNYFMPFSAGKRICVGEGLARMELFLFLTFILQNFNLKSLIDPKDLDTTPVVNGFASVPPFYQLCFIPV
assay-info: Reversible CYP inhibition in human liver microsomes
protocol-conditions: human, microsomes, pH 7.4, Percent of Control Activity, CYP 2C19, 1 µM, Zero-Minute Preincubation

>  <molecular-string>
COc1cccc2[nH]c(C(=O)N[C@@H](CC(C)C)C(=O)N[C@@H](C[C@@H]3CCNC3=O)C(=O)COP(=O)(O)O)cc12

>  <target-or-system>
UniProt P33261

>  <unit-name>
%

>  <activity at 1 µM>
95.8

$$$$

====

Test system: CYP3A4/5
assay-info: in vitro
protocol-conditions: human, microsomes, pH 7.4, Percent of Control Activity, CYP 3A4/5 (mdz), 0.158 µM, Zero-Minute Preincubation

>  <molecular-string>
COc1cccc2[nH]c(C(=O)N[C@@H](CC(C)C)C(=O)N[C@@H](C[C@@H]3CCNC3=O)C(=O)COP(=O)(O)O)cc12

>  <activity at 0.158 µM, %>
99.1

$$$$
